- Test system: SF-268
- PROCEDURE TEXT: Cytotoxicity against human SF268 cells after 48 hrs
- Assay type: functional
- SETUP CONDITIONS: SF-268, 48 h
RECORDED ENDPOINT: GI50 (µM)
// note: answer is a bare numeric in µM

Example entries begin here.
CCCCSc1c(O)ccc(O)c1C(C)=O
27.5
CN(C)/N=C/c1ccc(C2=CC(=O)c3ccccc3C2=O)o1
6.5
O=Cc1ccc(-c2c(O)ccc(O)c2C=O)o1
35.8

In: Observed GI50 on SF-268 for `CN(C)/N=C/c1ccc(C2=C(Cl)C(=O)c3ccccc3C2=O)o1` , please.
Out: 9.3

###

- Tested on: MCF7
- PROCEDURE TEXT: Cytotoxicity against human MCF7 cells after 48 hrs
- Format: functional
- SETUP CONDITIONS: MCF7, 48 h
RECORDED ENDPOINT: GI50
Write the figure, then the unit, nothing else.

Example entries begin here.
CCCCSc1c(O)ccc(O)c1C(C)=O
29.2 µM
CN(C)/N=C/c1ccc(C2=CC(=O)c3ccccc3C2=O)o1
7.7 µM
COc1cccc2c1C(=O)c1c(O)c3c(c(O)c1C2=O)C[C@@](O)(C(=O)CO)C[C@@H]3O[C@H]1C[C@H](N)[C@H](O)[C@H](C)O1
0.0428 µM
CN(C)/N=C/c1ccc(C2=CC(=O)C=CC2=O)o1
33.5 µM

In: State the recorded GI50 for this entry: `CN(C)/N=C/c1ccc(-c2c(O)ccc(O)c2C=O)o1`
Out: 29.4 µM

In: State the recorded GI50 for this entry: `O=Cc1ccc(-c2c(O)ccc(O)c2C=O)o1`
Out: 20.3 µM

In: State the recorded GI50 for this entry: `CN(C)/N=C/c1ccc(C2=C(Cl)C(=O)c3ccccc3C2=O)o1`
Out: 8.1 µM

In: State the recorded GI50 for this entry: `O=Cc1c(O)ccc(O)c1Cl`
Out: 15.6 µM

In: State the recorded GI50 for this entry: `COC1=CC(=O)C(c2ccc(/C=N/N(C)C)o2)=CC1=O`
Out: 8.2 µM

###

- Tested on: SF-268
- PROCEDURE TEXT: Cytotoxicity against human SF268 cells after 48 hrs
- Format: functional
- SETUP CONDITIONS: SF-268, 48 h
In plain terms, low GI50, meaning strictly below 9 µM, gives Y, and everything else gives N.

CN(C)/N=C/c1ccc(-c2c(O)ccc(O)c2C=O)o1
N
CN(C)/N=C/c1ccc(C2=CC(=O)C=CC2=O)o1
N
COc1cccc2c1C(=O)c1c(O)c3c(c(O)c1C2=O)C[C@@](O)(C(=O)CO)C[C@@H]3O[C@H]1C[C@H](N)[C@H](O)[C@H](C)O1 [DOXORUBICIN]
Y

In: Problem: For the compound `O=Cc1c(O)ccc(O)c1Cl` , is GI50 under 9 µM?
Out: N
